Each entry below carries its measured pIC50, system: Lyn (Homo sapiens).
Sequence (P07948 whole entry, species assumed): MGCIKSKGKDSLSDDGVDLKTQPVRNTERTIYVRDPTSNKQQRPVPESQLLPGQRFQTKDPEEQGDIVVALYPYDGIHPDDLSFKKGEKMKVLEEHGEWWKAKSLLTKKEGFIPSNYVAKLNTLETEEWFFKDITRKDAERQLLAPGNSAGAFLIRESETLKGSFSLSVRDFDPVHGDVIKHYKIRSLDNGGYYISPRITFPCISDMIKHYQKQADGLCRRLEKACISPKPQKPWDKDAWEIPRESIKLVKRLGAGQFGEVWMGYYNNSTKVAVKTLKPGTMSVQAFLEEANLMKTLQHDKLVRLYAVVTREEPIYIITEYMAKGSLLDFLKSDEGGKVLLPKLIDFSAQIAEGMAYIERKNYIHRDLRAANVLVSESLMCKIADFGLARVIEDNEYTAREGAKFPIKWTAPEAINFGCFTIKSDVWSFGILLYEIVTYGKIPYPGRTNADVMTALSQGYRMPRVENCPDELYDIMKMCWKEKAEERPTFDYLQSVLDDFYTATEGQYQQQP
pIC50: −log10 of the molar value.

// worked examples, pIC50 included
COc1cc(Nc2ncnc(-n3c(NCCc4ccccn4)nc4ccccc43)n2)cc(OC)c1OC [Compound 510]	< 5.04
COc1cc(Nc2ncnc(-n3c(NCc4cccc(C)c4)nc4ccccc43)n2)cc(OC)c1OC [Compound 515]	< 5.04
COc1cc(Nc2ncnc(-n3c(NCc4cccnc4)nc4ccccc43)n2)cc(OC)c1OC [Compound 416]	5.31 to 6.08
COc1cc(Nc2ncnc(Nc3ccccc3F)n2)cc(OC)c1OC [Compound 65]	5.19 to 5.97
COc1cc(Nc2ncnc(-n3c(NCC(C)C)nc4ccccc43)n2)cc(OC)c1OC [Compound 407]	> 6.05

Give measured pIC50 for CC(=O)NS(=O)(=O)c1ccc(Nc2ncnc(-n3c(N)nc4ccccc43)n2)cc1 [Compound 440] (Lyn (Homo sapiens)). 5.08 to 5.25

====

Documented IC50 across a set of molecules
biological target: UniProtKB P06241
Sequence (P06241 whole entry, species assumed): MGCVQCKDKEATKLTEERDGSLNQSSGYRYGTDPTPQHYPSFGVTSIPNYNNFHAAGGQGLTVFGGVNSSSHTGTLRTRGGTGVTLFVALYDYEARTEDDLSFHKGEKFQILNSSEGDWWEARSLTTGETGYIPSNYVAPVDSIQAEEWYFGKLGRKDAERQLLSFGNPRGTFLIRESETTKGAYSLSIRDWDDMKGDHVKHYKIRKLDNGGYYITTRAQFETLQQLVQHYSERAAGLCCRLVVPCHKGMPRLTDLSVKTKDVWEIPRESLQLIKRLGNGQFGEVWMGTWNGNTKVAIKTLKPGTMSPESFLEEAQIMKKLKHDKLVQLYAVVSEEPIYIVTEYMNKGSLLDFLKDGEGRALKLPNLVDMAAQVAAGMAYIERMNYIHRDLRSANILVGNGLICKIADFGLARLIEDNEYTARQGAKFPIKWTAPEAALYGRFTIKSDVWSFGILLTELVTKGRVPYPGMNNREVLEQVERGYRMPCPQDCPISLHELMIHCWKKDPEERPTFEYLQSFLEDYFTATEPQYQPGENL

Sample answers from the record:
COc1cc(Nc2ncnc(-n3c(NCc4ccccc4Cl)nc4ccccc43)n2)cc(OC)c1OC	> 8.69 µM
COc1cc(Nc2ncnc(Nc3ccc4[nH]ncc4c3)n2)cc(OC)c1OC	1.02 to 6.1 µM
CC(C)Nc1ncccc1-c1ncnc(Nc2ccc(C(N)=O)cc2)n1	> 12.9 µM
COc1ccc(Nc2ncnc(Nc3cc(OC)c(OC)c(OC)c3)n2)cc1	1.04 to 6.26 µM

Report value only: IC50, UniProtKB P06241, COc1cc(Nc2ncnc(Nc3ccc(Oc4ccccc4)cc3)n2)cc(OC)c1OC < 0.898 µM

Write down measured IC50 (UniProtKB P06241) for this molecule. COc1cc(Nc2ncnc(-n3ccc4ccc(Cl)cc43)n2)cc(OC)c1OC > 10.9 µM

====

Target: EGFR (Homo sapiens, UniProt P00533)
Construct: Kinases are expressed as either kinase domains or full length constructs; made in house
Sequence (P00533 25-1210, species assumed): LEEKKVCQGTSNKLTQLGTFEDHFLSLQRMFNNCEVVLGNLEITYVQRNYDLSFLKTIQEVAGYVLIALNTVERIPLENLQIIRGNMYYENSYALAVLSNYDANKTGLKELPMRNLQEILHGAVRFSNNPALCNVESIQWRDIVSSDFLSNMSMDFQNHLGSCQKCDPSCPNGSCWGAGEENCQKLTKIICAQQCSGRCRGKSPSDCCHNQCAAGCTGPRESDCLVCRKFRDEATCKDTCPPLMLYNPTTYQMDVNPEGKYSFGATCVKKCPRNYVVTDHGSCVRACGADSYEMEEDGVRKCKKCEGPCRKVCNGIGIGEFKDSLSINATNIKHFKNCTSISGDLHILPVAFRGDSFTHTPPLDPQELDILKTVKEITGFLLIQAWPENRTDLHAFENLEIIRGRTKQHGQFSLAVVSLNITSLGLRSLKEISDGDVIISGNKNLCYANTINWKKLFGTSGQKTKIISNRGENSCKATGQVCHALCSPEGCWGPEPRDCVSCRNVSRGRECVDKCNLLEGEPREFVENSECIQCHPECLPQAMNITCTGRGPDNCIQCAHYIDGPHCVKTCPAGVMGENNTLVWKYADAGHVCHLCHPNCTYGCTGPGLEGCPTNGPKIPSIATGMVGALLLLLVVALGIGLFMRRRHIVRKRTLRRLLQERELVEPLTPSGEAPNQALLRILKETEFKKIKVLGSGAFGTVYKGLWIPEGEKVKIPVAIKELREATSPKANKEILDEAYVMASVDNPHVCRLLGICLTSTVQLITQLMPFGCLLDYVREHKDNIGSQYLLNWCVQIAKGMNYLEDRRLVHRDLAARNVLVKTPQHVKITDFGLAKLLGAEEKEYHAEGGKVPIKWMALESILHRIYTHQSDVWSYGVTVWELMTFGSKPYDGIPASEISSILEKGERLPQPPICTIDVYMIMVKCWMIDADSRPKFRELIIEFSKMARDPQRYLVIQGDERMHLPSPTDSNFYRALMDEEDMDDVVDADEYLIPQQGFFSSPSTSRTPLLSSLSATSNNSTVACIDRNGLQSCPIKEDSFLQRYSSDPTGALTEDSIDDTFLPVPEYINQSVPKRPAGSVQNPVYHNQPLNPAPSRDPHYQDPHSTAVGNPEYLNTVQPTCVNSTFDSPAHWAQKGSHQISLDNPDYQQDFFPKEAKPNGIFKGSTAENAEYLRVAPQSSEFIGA
Assay: Kinase inhibition assay (33P transfer), EGFR
Format: biochemical
Conditions: Table 2, kinase inhibition class; read-out: EGFR-1
Experimental: The inhibitor compounds described herein are screened in the following manner. […] Kinases are expressed as either kinase domains or full length constructs fused to glutathione S-transferase (GST) or polyHistidine tagged fusion proteins in either E. colior Baculovirus-High Five expression systems. […] Kinase activity and inhibition are measured essentially by established protocols (Braunwalder et al., 1996). […]
Below, each entry is listed with its recorded IC50.

Here are 2 compounds together with their reported answers.
COc1cc(Nc2ncnc(Nc3cccc(CC(=O)O)c3)n2)cc(OC)c1OC [Compound 624]	< 0.972 µM
COc1cc(Nc2ncnc(Nc3cc(-c4ccccc4)nn3C)n2)cc(OC)c1OC [Compound 394]	8.07 to 10.4 µM

Next compound, IC50 to be filled in.
State its IC50: NC(=O)c1ccc(Nc2ncnc(-n3c(=O)[nH]c4ccccc43)n2)cc1 [Compound 419] > 13 µM

====

Here, each record is paired with measured IC50 data.
molecular target: PDGFRB (Homo sapiens, UniProt P09619); construct: Kinases are expressed as either kinase domains or full length constructs; made in house; experiment: Kinase inhibition assay (33P transfer), PDGFRB; format: biochemical; conditions: read-out: PDGFRB-1
Sequence (P09619 33-1106, species assumed): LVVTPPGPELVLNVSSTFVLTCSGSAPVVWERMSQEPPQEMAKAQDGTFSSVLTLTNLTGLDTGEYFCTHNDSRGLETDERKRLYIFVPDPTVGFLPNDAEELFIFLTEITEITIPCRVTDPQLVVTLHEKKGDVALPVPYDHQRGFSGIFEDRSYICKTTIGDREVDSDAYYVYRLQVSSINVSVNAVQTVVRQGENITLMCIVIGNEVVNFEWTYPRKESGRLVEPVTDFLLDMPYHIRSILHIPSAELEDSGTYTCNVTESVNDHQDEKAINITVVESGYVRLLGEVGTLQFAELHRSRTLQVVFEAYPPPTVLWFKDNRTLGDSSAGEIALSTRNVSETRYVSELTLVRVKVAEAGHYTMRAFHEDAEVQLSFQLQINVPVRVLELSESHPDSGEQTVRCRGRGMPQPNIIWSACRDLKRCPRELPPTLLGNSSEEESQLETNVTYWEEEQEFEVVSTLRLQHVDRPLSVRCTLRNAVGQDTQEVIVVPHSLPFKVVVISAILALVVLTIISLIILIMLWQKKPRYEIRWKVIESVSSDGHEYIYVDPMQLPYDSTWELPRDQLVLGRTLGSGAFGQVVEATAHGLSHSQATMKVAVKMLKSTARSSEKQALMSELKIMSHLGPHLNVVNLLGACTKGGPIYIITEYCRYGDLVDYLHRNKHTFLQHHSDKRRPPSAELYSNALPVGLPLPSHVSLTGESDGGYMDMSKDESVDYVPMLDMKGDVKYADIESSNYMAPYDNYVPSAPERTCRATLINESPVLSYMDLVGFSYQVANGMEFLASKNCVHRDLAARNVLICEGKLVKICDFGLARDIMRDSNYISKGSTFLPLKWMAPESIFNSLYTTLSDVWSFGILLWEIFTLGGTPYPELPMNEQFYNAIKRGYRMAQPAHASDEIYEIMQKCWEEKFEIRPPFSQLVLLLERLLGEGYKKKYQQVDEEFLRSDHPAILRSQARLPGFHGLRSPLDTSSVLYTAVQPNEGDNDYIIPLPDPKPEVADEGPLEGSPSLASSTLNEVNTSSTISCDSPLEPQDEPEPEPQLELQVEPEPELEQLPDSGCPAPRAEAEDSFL

Sample answers from the record:
Cc1ccc2c(c1)CCCN2c1ncnc(NCC2CCCO2)n1 (stereo not drawn) [Compound 759]	> 13.8 µM
Cc1cccc(Nc2ncnc(N3CCCc4ccc(C(F)(F)F)cc43)n2)c1 [Compound 582]	> 11.7 µM
COc1cc(Nc2ncnc(-c3cccnc3Nc3ccc(C(C)=O)cc3)n2)cc(OC)c1OC [Compound 832]	> 9.52 µM
COC(=O)c1ccc(-c2cc(Nc3ncnc(NCCNC(C)=O)n3)[nH]n2)cc1 [Compound 819]	1.01 to 6.05 µM
COC(=O)Cc1cccc(Nc2ncnc(Nc3ccc(C)c(O)c3)n2)c1 [Compound 542]	1.09 to 6.57 µM

Return value of IC50 for input CN(c1cccc(Cl)c1)c1ncnc(Nc2cc(C(C)(C)C)on2)n1 [Compound 754] , no commentary. > 12.5 µM

Please give the documented IC50 of CN(c1cccc(Cl)c1)c1ncnc(Nc2ccc3[nH]ccc3c2)n1 [Compound 714] 1.14 to 6.84 µM

Give the measured IC50 for Cc1ccc2c(c1)CCCN2c1ncnc(NCc2cccnc2)n1 [Compound 777] > 13.5 µM

Give recorded IC50. COc1cc(Nc2ncnc(-n3c(NCc4ncc[nH]4)nc4ccccc43)n2)cc(OC)c1OC [Compound 583] 0.845 to 5.07 µM

Reference source: patent US7074789B2
